- Method description: soluble fraction after stress (log2 fold change); higher = more stays soluble; pooled small domains, quantitative proteomics
- Setup conditions: stress: 50 degC

Sequence entry	soluble fraction (log2)
HMAAIPATVDEETYRRLKPMLKQYGILYHEFKPLRSGKKGAVELIFMEKDLALVQELLSRLKKEK	0.422
HMNSLKNKNNLIALVGASNDKNKYGNKILLDLVSKGHNVVPINPKEDTVAGLKSYNNVSELSEKPSI	-0.211
HMEVSVPDFTGMSKSDAQNAAKEAGLTVNFEEDYDNQVPAGQVIRSNPSAGEKVKKNSSVTVTLSKGSN	-0.0943
HMNFFQEIGNSILIELNKKNWTQSMFAHKIGVSDEVFKQIVQGKKALNAVEIAKIANTLDVDPEKLLRK	-0.191
HMRTPTGVQAYLSSGLIKGIGEKTAAAIVDKFGTDALSVIETDPERLLEIPGITPNKLREILESYNQH	0.141
HMVDQKLIQASAEHSGIRIDRFLSEQLPEHSRSYIQKLIKDGQVSIGGKAVKSNYKIAGTEEISLLIPDQ	0.0523
HMETIGENIKTYRQKKGYTQEEVANRLHVTRQTISKWEKNYSIPDAEVLVKLADVLEVQTSQLLGV	0.102
HMTKSTSMDLGGFMIVEGSETVRLGGQILQKDVDYTIDYFSGKINFISEEALNPGAEISVSYEENQ	-0.187
HMKEYPEVITTSRLNVRTGPGTGYQRLGTLDQNLRVLVLTRQQGWAQIRGMLNGETVIGWVNDYYLQAID	-0.319
HMTAFSEQLIKLRKQKGLSQEQLGAAVGVTRQTVSKWELGDTTPELGKLVQLSDYFQLSIDELVGH	-0.0666
HMNIEEAESILKEIKTVLTDKEYEVYTLRAKGFTYQEIASLLNTTTKSVDGALSRIKTKINNIK	0.0839
HMDNVLGKSGKVIFVNEEINSYGRAFIPGHGEWNIRTKSDQNIHINDGIKVIERDGITLVVEL	-1.14
HMANVQLAKNLKTLRKKYNYTQQDVSTFLNITRQAYSHYEQALREPDLNTLVHLSRFYQVTLDELI	-3.8
HMRLADHVVEKLLALVQERGLQPGQKLPAERQLAEVLGVSRTSVREAIQKLVSQGVLSARRGDGTYVQS	0.00808
HMLSLKAQVYEIIRQKILQQEYALGEKINIDTVADELKISNSPIREALMMLSQDGLIEMVPNNGARVI	-0.772
HMKDPSLEHIDALAGKPFQAFPGQDHRAHITAHLNFMSTNMVRNNPSIMAAIQKNILEHISLMAQEQIQL	-0.783
HMNEDTEDIKNINSLVNKLTENNFDIIRDSIVKLINKEHLIPYIIETIIEKSILHHRYVHLYVSILKE	0.0794

----------
Reported values of soluble fraction (log2) for individual entries
- Method description: soluble fraction after stress (log2 fold change); higher = more stays soluble; pooled small domains, quantitative proteomics
- Setup conditions: stress: 50 degC

Sequence entry	soluble fraction (log2)
HMSAEDYMEMIYRLSQENGFTRVNDLASALNVQPPSVTRMIQKLAELNLIKYEKYGVIMLQPYGIEVGRSL	-1.91
HMSEVTYQETLRLLRRAIDVLPQQSRQIILLGLSGKNNNEVAEMLGISVNTVKTLKKGAYKSLRNSL	-1.66
HMAHPRTHEALNPLWEKYLGPNAGNDFFLSGGTSLKALMFLKDLEKTLNKRIAIHAFFKDPTYEHVVSD	-0.683
HMNINTEMEKVSYSLGVNIASSLKQQGWELDAKSLSDAFVDVFNGNKLLIDEKEASSILQNYQQKIANK	-0.144
HMNHAPSLMRKIRRGLKEGRNPDDLLVNAKSISDYYYRSLSFYLLAPHFSSKSKQYKQVISLANS	0.036
HMAVSNWQKLVSSIQTQLKILALYHGPEDGIYGPNTRSAIMLYEENIGLPVTGEPSRELLAHMLDQTD	-0.869
HMATVNIGNLTFTHKGDYASGTTYAKNDVVYYSTNGNAYIAKQATQGNAPTSTAHWDVFAAGSGG	-0.161
HMQALTLVGQDAKDAKAALDAVDIQPAKTETDRYIYVLTEQQAQELGRTVDALYGVEGSLTLILEV	0.0301
HMADEGFRQTVLAVLARWESKIHHGQYNALKAKVMNGNWSSFVKQVVKFQGKFIHPDAAKELLGLFG	-0.0749
HMSKPTLTLKSNAYPYNLNGERINNYLGFTYIKKGATLNYQGSKRINGQNYYYIGDGAYIKNTTVGSTNN	-1.51
HMELEIPGELIEAVRRLRDERQRMRLAGELAARQIQMHPERYTEASIDPVQTWDELRARILALA	-0.248
HMAWIAVATKEDYSEYEWKELSPTTDWSTQTFDLGDLAGKTIYAVKMFFDHDTDVKDYKFNLGQLSITSN	-0.266
HMEIEIPEELQNKFAEIPELKTAFESLTPGRQRAYVLYFSQPKQSKTREARIEKYIPHILDGKGMN	0.111
HMSSQWWYSAGGERKGPVDFATLRGLYVQGAIDGRTLAWREDMQGWEAVNDIPDLEPLRRAVPPEL	-0.0348
HMQEISQEEALATVLKDLSLTEADLKDLQITREEDKYKILFSKGQTAYDVLVSAKDGQLLQSKQETI	-0.165
HMKTYGGDNSLHKFDEHHSWMVAKYGPVVKQTINGETKWLKVKKDLTLAQVKKMKLEDVLLPKSQT	-0.152
HMREQAHEVAGKLGYPVMVKASAGGGGKGIRIVRTEDELDQAFEAAQSETKAAFGDDQMYMEKVI	0.00859

----------
- Method description: soluble fraction after stress (log2 fold change); higher = more stays soluble; pooled small domains, quantitative proteomics
- Setup conditions: stress: 50 degC
Label True when soluble fraction (log2) is at or above -0.2; anything below gets False.

Sequence entry	Group label
HMPSPFYIMDEVEAALDDTNLGRLITLFEELRDSSQLIVITHQKKTMEIADALYGVTMRGDGITTVVSQRL	False
HMIDEPENLIQEDKMVNIIYDLALLEGVKTFNSSNFQSVKSNDFVYKKYKIDSLQFAKSTQFYASDINR	True
HMALPEHIEPFLRGLGQALAEGDSYEDVQERLLRAYPYLDSTEFQTALARVIFISDLWGRLN	False
HMLAAAVVVYATDKVNVRAEASETADVIGQLEAGSQTTRLEDKDGWSRIDYSNGTQGYMKSEFLSTEAPT	True
HMLALKSGQVVVGTIIRRLDNTTAMLRIGNQLFETSFAKGLPKSNHILLRYDAMQGNRFIFTMVE	True
HMKSSYSGNFKQNVVEYMHNNHLSATETANHFKLGGGSVVLRWERIYYEEGPQALYEERRGR	False
HMDDVGYLRKRLQQALAQLSDDLRNTYTLFQIGKQSIKQIAAETGASESLVKVRIHRAKQKLQELLADLQ	False
HMLKPKDLHLGDSVRVLSLNLKGTVSSLPDTKGFLFVQMGIMRSKLHISDLQLIDEPVITAP	True
HMNSFGWESFVGEKGVTDTDLRPSGWIVIKDKRLFALTEGTFIEKGVSVEILSVEGNRIVVREIS	False
HMDAKQLQSLKNNNEQLAGFIVRLTNFYEGLSPDIDAELSKLRSHLSGKVDYTLATVSINKINQLFMLEP	False
HMEQVLNVAVRRGELIMSSAAEQTVRIYSSAGSMVWQGKVSASDVTVELPSGVYVVNGKKVV	False
HMTVLSKEEFVAIEQRLLQLLGTAPVDNKILLQQLSGIKKEKAWKVLSFLQAENKIGMDATGRVYL	False
HMQASIPQSQKDALAKELQALPPHGRNRVLSTFRQQFNISSEKISEFITTPEHLSFIRSKIAEVESDS	True
HMIPDAIDPDGRFKWRAGEAVVGFGRHAGEPLKKIAIENPEFLRWILKADFSTDVKKIASDALKGYFPEK	False
HMRELPKRPEIRYAAGDRVFHKAFGNGLVKQVAQTAGGARVTVDFGEGKGVKTFAGDAPMIKI	True
HMRELSDFEKLLFTTTLERKMINLAMLLTRSNKADSKDLIQDSYLKAIENQVQFNGNNIDAWVITILKNTF	True
HMVNIEAEVGRRLRQLRARRGLSLRALADLSGLNVNTLSLIENSKTSPSVSTLQQLARSLQVPITTFFESD	False

----------
- Method description: soluble fraction after stress (log2 fold change); higher = more stays soluble; pooled small domains, quantitative proteomics
- Setup conditions: stress: 50 degC

Sequence entry	soluble fraction (log2)
HMHGSSSTVPPVKGLSFEQARLTLAENDLTVEISDSIYDRNARPGTVVESWPRAGSVVKQGRQVYVTVTAF	-0.922
HMDVAWDAIKAKLKEVVDAEDKAHPLNDDQIVKALGESGITIARRTIAKYRDLLGIPPARKRKA	0.0649
HMTNYGTVRPGARGQAVTALQQALIRHGYKLTADGIYGRATRQAVRAFQQKHKLKVDGIVGSKTWALLLAD	-1.04
HMNTISYTELIKQIDEGNVEKVEMTVGSTSVKVKLQGQEEEKKAIVPNTQAFVELIQEKTLEGNQIDLKQN	-0.0333
